Origin of measurements: patent US11339171B2

Assay Notes: Pharmacokinetics in ICR mice after intravenous and intragastric administration
Format: in vivo
Run Conditions: male, ICR, mouse, plasma, po, 5 mg/kg, ICR mice, PO 5 mg/kg, mean of 3 animals; read-out: MRT(0-t)
Outcome Measure: MRT last (h)
Numeric only. Scale: h

### Prompt Specify measured MRT last for COc1cc(C2CC2)ncc1-c1nc2c(n1C(C)C)[C@@]1(C(=O)Nc3cc(Cl)ccc31)N(c1cc(Cl)ccc1C)C2=O [Example S-103] .
### Response 3.63

### Prompt Specify measured MRT last for COc1nc(OCCF)ncc1-c1nc2c(n1C(C)C)[C@@]1(C(=O)Nc3cc(Cl)ccc31)N(c1cc(Cl)ccc1C)C2=O [Example S-140] .
### Response 2.87

### Prompt Specify measured MRT last for COc1nc(C2CC2)ncc1-c1nc2c(n1C(C)C)[C@@]1(C(=O)Nc3cc(Cl)ccc31)N(c1cc(Cl)ccc1C)C2=O [Example S-121] .
### Response 5.21

### Prompt Specify measured MRT last for COc1ncc(-c2nc3c(n2C(C)C)[C@@]2(C(=O)Nc4cc(Cl)ccc42)N(c2cc(F)cc(Cl)c2)C3=O)c(OC)n1 [Example S-45] .
### Response 2.55

### Prompt Specify measured MRT last for COc1cc(OC)c(-c2nc3c(n2C(C)C)[C@@]2(C(=O)Nc4cc(Cl)ccc42)N(c2cc(Cl)cnc2C)C3=O)cn1 [Example S-131] .
### Response 2.21

Others:
### Prompt Specify measured MRT last for CCOc1ncc(-c2nc3c(n2C(C)C)[C@@]2(C(=O)Nc4cc(Cl)ccc42)N(c2cc(Cl)cnc2C)C3=O)c(OC)n1 [Example S-134] .
### Response 2.1

---

Assay Notes: Pharmacokinetics in ICR mice after intravenous and intragastric administration
Format: in vivo
Run Conditions: PO 5 mg/kg vs IV 2 mg/kg, ICR mice
Outcome Measure: F* (%)
Numeric only. Scale: %

Answered cases to consult:
### Prompt Specify measured F* for COc1ncc(-c2nc3c(n2C(C)C)[C@@]2(C(=O)Nc4cc(Cl)ccc42)N(c2cccc(Cl)c2)C3=O)c(OC)n1 .
### Response 76.30

### Prompt Specify measured F* for COc1cc(N(C)C)ccc1-c1nc2c(n1C(C)C)[C@@]1(C(=O)Nc3cc(Cl)ccc31)N(c1cc(Cl)ccc1C)C2=O .
### Response 43.18

### Prompt Specify measured F* for COc1ncc(-c2nc3c(n2C(C)C)[C@@]2(C(=O)Nc4cc(Cl)ccc42)N(c2cc(Cl)ccc2C)C3=O)c(OC)n1 .
### Response 101.81

### Prompt Specify measured F* for COc1ccc(-c2nc3c(n2C(C)C)[C@@]2(C(=O)Nc4cc(Cl)ccc42)N(c2cc(Cl)ccc2C)C3=O)c(OC)c1 .
### Response 79.30

### Prompt Specify measured F* for COc1cc(OC)c(-c2nc3c(n2C(C)C)[C@@]2(C(=O)Nc4cc(Cl)ccc42)N(c2cc(Cl)ccc2C)C3=O)cn1 .
### Response 102.51

Others:
### Prompt Specify measured F* for COc1ncc(-c2nc3c(n2C(C)C)[C@H](c2ccc(Cl)cc2)N(c2cc(Cl)cn(C)c2=O)C3=O)c(OC)n1 [HDM201, reference compound] .
### Response 78.76

---

The compounds listed here are annotated with their Tmax.
Assay Notes: Pharmacokinetics in ICR mice after intravenous and intragastric administration
Format: in vivo
Run Conditions: male, ICR, mouse, plasma, po, 5 mg/kg, ICR mice, PO 5 mg/kg, individual animal; read-out: Tmax
Numeric only. Scale: h

### Prompt Specify measured Tmax for COc1ncc(-c2nc3c(n2C(C)C)[C@@]2(C(=O)Nc4cc(Cl)ccc42)N(c2cc(Cl)ccc2F)C3=O)c(OC)n1 .
### Response 1

### Prompt Specify measured Tmax for COc1cc(OC(C)C)ncc1-c1nc2c(n1C(C)C)[C@@]1(C(=O)Nc3cc(Cl)ccc31)N(c1cc(Cl)ccc1C)C2=O .
### Response 2

### Prompt Specify measured Tmax for COc1cc(OC)c(-c2nc3c(n2C(C)C)[C@@]2(C(=O)Nc4cc(Cl)ccc42)N(c2cc(Cl)ccc2F)C3=O)cn1 .
### Response 1

### Prompt Specify measured Tmax for COc1ccc(-c2nc3c(n2C(C)C)[C@@]2(C(=O)Nc4cc(Cl)ccc42)N(c2cc(Cl)cnc2C)C3=O)c(OC)c1 .
### Response 0.25

### Prompt Specify measured Tmax for COc1ncc(-c2nc3c(n2C(C)C)[C@@]2(C(=O)Nc4cc(Cl)ccc42)N(c2cc(F)cc(Cl)c2)C3=O)c(OC)n1 .
### Response 0.5

### Prompt Specify measured Tmax for COc1cc(C2CC2)ncc1-c1nc2c(n1C(C)C)[C@@]1(C(=O)Nc3cc(Cl)ccc31)N(c1cc(Cl)ccc1C)C2=O .
### Response 2

---

Target: MDM2 (Homo sapiens, UniProt Q00987)
Sequence (Q00987 whole entry): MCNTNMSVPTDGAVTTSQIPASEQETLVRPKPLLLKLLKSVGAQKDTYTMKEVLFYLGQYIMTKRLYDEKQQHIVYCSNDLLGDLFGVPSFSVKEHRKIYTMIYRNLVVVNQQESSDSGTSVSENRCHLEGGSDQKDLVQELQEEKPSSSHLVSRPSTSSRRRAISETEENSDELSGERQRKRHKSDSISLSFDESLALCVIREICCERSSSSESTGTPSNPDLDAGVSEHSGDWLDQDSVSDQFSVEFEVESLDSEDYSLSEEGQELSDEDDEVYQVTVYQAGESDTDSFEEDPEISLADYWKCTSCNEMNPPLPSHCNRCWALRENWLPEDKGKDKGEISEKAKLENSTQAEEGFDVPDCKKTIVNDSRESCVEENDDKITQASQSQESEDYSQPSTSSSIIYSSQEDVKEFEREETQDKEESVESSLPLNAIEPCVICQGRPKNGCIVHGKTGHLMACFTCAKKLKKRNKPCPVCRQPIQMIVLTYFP
The molecules listed here are annotated with their IC50.
Numeric only. Scale: nM

### Prompt // fetch IC50 for COc1cc(C(C)C)ncc1-c1nc2c(n1C(C)C)[C@@]1(C(=O)Nc3cc(Cl)ccc31)N(c1cc(Cl)cnc1C)C2=O [Example S-166] ; system: MDM2 (Homo sapiens, UniProt Q00987)
### Response 1.88

### Prompt // fetch IC50 for COc1nc(OCCF)ncc1-c1nc2c(n1C(C)C)[C@@]1(C(=O)Nc3cc(Cl)ccc31)N(c1cccc(Cl)c1)C2=O [Example S-171] ; system: MDM2 (Homo sapiens, UniProt Q00987)
### Response 2.86

Now take the following molecule into account.
### Prompt // fetch IC50 for COc1cc(OCCO)ccc1-c1nc2c(n1C(C)C)[C@]1(C(=O)Nc3cc(Cl)ccc31)N(c1cc(Cl)ccc1C)C2=O [Example R-148] ; system: MDM2 (Homo sapiens, UniProt Q00987)
### Response 201

---

The compounds listed here are annotated with their clearance.
Assay Notes: Pharmacokinetics in ICR mice after intravenous and intragastric administration
Format: in vivo
Run Conditions: male, ICR, mouse, plasma, iv, 2 mg/kg, ICR mice, IV 2 mg/kg, individual animals 301-303
Numeric only. Scale: mL/min/kg

Answered cases to consult:
### Prompt Specify measured clearance for COc1nc(N(C)C)ncc1-c1nc2c(n1C(C)C)[C@@]1(C(=O)Nc3cc(Cl)ccc31)N(c1cc(Cl)cnc1C)C2=O .
### Response 4.25

### Prompt Specify measured clearance for CCOc1ncc(-c2nc3c(n2C(C)C)[C@@]2(C(=O)Nc4cc(Cl)ccc42)N(c2cc(Cl)cnc2C)C3=O)c(OC)n1 .
### Response 6.59

### Prompt Specify measured clearance for COc1cc(C(F)(F)F)ncc1-c1nc2c(n1C(C)C)[C@@]1(C(=O)Nc3cc(Cl)ccc31)N(c1cc(Cl)ccc1C)C2=O .
### Response 5.44

### Prompt Specify measured clearance for COc1cc(OC(C)C)ncc1-c1nc2c(n1C(C)C)[C@@]1(C(=O)Nc3cc(Cl)ccc31)N(c1cc(Cl)cnc1C)C2=O .
### Response 3.42

Others:
### Prompt Specify measured clearance for COc1nc(C2CC2)ncc1-c1nc2c(n1C(C)C)[C@@]1(C(=O)Nc3cc(Cl)ccc31)N(c1cc(Cl)cnc1C)C2=O .
### Response 17.9

---

Assay Notes: Pharmacokinetics in ICR mice after intravenous and intragastric administration
Format: in vivo
Run Conditions: male, ICR, mouse, plasma, iv, 2 mg/kg, IV 2 mg/kg, ICR mice, individual animal; read-out: MRT(0-∞)
The compounds listed here are annotated with their MRT inf.
Numeric only. Scale: h

### Prompt Specify measured MRT inf for COc1cc(OC)c(-c2nc3c(n2C(C)C)[C@@]2(C(=O)Nc4cc(Cl)ccc42)N(c2cc(Cl)ccc2C)C3=O)cn1 .
### Response 1.55

### Prompt Specify measured MRT inf for COc1ncc(-c2nc3c(n2C(C)C)[C@@]2(C(=O)Nc4cc(Cl)ccc42)N(c2cccc(Cl)c2)C3=O)c(OC)n1 .
### Response 1.41

Now take the following compound into account.
### Prompt Specify measured MRT inf for COc1ncc(-c2nc3c(n2C(C)C)[C@@]2(C(=O)Nc4cc(Cl)ccc42)N(c2cc(Cl)ccc2C)C3=O)c(OC)n1 .
### Response 1.51

---

The molecules listed here are annotated with their AUC(0-t).
Assay Notes: Pharmacokinetics in ICR mice after intravenous and intragastric administration
Assay type: in vivo
Run Conditions: male, ICR, mouse, plasma, po, 5 mg/kg, ICR mice, PO 5 mg/kg, mean of 3 animals; read-out: AUC(0-t)
Numeric only. Scale: ng·h/mL

### Prompt Specify measured AUC(0-t) for COc1nc(OCCF)ncc1-c1nc2c(n1C(C)C)[C@@]1(C(=O)Nc3cc(Cl)ccc31)N(c1cc(Cl)ccc1C)C2=O .
### Response 24200

### Prompt Specify measured AUC(0-t) for COc1cc(OC)c(-c2nc3c(n2C(C)C)[C@@]2(C(=O)Nc4cc(Cl)ccc42)N(c2cc(Cl)ccc2F)C3=O)cn1 .
### Response 5440

### Prompt Specify measured AUC(0-t) for COc1cc(OC(C)C)ncc1-c1nc2c(n1C(C)C)[C@@]1(C(=O)Nc3cc(Cl)ccc31)N(c1cc(Cl)cnc1C)C2=O .
### Response 15400

### Prompt Specify measured AUC(0-t) for COc1ncc(-c2nc3c(n2C(C)C)[C@@]2(C(=O)Nc4cc(Cl)ccc42)N(c2cc(Cl)ccc2F)C3=O)c(OC)n1 .
### Response 6450

### Prompt Specify measured AUC(0-t) for CCOc1cc(OC)c(-c2nc3c(n2C(C)C)[C@@]2(C(=O)Nc4cc(Cl)ccc42)N(c2cc(Cl)cnc2C)C3=O)cn1 .
### Response 8780

Now take the following molecule into account.
### Prompt Specify measured AUC(0-t) for COc1cc(OC)c(-c2nc3c(n2C(C)C)[C@@]2(C(=O)Nc4cc(Cl)ccc42)N(c2cccc(Cl)c2)C3=O)cn1 .
### Response 3000
